Attribution: ChEMBL document CHEMBL5523709

method: Metabolic stability in mouse liver microsomes assessed as depletion measured after 30 mins
Format: ADME, Microsome
condition-set: read-out: Drug degradation
# key: entry, value: metabolised at 0.5 h

{"columns": ["smiles-str", "measurement-units", "metabolised at 0.5 h"],
 "data": [
  ["C[C@]12CC[C@H]3[C@@H](CCC4=CC(=O)CC[C@@]43C)[C@@H]1CC[C@@H]2O", "%", 98],
  ["Nc1cc[nH]n1", "%", 18]
]}

----------
test-system: Leukotriene A-4 hydrolase (Homo sapiens, UniProt P09960)
Sequence (P09960 whole entry): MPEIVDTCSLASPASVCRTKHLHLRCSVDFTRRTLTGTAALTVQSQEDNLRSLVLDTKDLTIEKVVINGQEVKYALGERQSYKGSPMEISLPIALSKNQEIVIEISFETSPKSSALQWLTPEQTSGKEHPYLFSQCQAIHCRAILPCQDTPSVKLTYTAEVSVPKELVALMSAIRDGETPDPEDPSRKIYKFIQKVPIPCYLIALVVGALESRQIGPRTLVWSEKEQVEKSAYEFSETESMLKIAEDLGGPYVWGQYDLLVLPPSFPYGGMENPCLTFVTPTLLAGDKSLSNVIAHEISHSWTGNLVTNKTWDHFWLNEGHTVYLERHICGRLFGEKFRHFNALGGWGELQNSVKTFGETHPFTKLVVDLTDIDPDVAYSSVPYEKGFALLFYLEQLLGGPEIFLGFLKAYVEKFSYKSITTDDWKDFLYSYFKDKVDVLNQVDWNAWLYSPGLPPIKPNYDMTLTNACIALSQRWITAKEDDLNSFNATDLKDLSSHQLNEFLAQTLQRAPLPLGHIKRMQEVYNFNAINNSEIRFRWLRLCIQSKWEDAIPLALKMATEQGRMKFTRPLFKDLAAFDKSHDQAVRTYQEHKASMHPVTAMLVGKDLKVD
method: Inhibition of human recombinant LTA4H aminopeptidase activity assessed as alanine-p-nitroanilide (Ala-pNA) hydrolysis by LCMS analysis

{"columns": ["smiles-str", "IC50 / µM"],
 "data": [
  ["Clc1ccc(Oc2ccc(N3CCNCC3)cc2)cc1", 3.33]
]}
